Cited source: paper PMC3366211

test system: L. infantum axenic amastigote forms; test: Axenic amastigote forms assay; type: cell-based, Leishmania infantum; settings: IC50 macrophages/IC50 parasite form
Can you tell me SI Axenic amastigote forms for the items I'm about to list?
Numbers only.

Reference set, count: 3
// SI Axenic amastigote forms value for `O=c1c(O[C@@H]2O[C@H](CO)[C@@H](O)[C@H](O)[C@H]2O)c(-c2ccc(O)cc2)oc2cc(O)cc(O)c12` : 8.1

// SI Axenic amastigote forms value for `CC(=O)O[C@H]1[C@H](Oc2c(-c3ccc(O)cc3)oc3cc(O)cc(O)c3c2=O)O[C@H](CO)[C@@H](O)[C@@H]1O` : 8.2

// SI Axenic amastigote forms value for CC(=O)O[C@H]1[C@H](Oc2c(-c3ccc(O)cc3)oc3cc(O[C@@H]4O[C@H](CO)[C@@H](O)[C@H](O)[C@H]4O)cc(O)c3c2=O)O[C@H](CO)[C@@H](O)[C@@H]1O [Compound 5, 2′′-acetylpaeonoside] : 33.6

Others:
// SI Axenic amastigote forms value for CC(=O)OC[C@H]1O[C@@H](Oc2c(-c3ccc(OC(C)=O)c(OC(C)=O)c3)oc3cc(O[C@@H]4O[C@@H](C)[C@H](OC(C)=O)[C@@H](OC(C)=O)[C@H]4OC(C)=O)cc(OC(C)=O)c3c2=O)[C@H](OC(C)=O)[C@@H](OC(C)=O)[C@@H]1OC(C)=O [Compound 9, petiolaroside decacetate] : 22.8

###

Can you tell me IC50 for the items I'm about to list?
tested on: L. braziliensis axenic amastigote forms; assay: Axenic amastigote forms assay; type: cell-based, Leishmania braziliensis; details: Leishmania braziliensis, 48 hours per method (72 h)
Answers are plain numbers, in µM.

// IC50 value for `O=c1c(O[C@@H]2O[C@H](CO)[C@@H](O)[C@H](O)[C@H]2O)c(-c2ccc(O)cc2)oc2cc(O)cc(O)c12` : 22.6

// IC50 value for CC(=O)O[C@H]1[C@H](Oc2c(-c3ccc(O)cc3)oc3cc(O[C@@H]4O[C@H](CO)[C@@H](O)[C@H](O)[C@H]4O)cc(O)c3c2=O)O[C@H](CO)[C@@H](O)[C@@H]1O [Compound 5, 2′′-acetylpaeonoside] : 19.4

Others:
// IC50 value for CC(=O)O[C@H]1[C@H](Oc2c(-c3ccc(O)c(O)c3)oc3cc(O[C@@H]4O[C@@H](C)[C@H](O)[C@@H](O)[C@H]4O)cc(O)c3c2=O)O[C@H](CO)[C@@H](O)[C@@H]1O [Compound 8, 2′′-acetylpetiolaroside] : 25.5

###

Can you tell me number of times that compound SI exceeds the reference drug SI, Promastigote forms for the items I'm about to list?
system: L. infantum promastigote forms; assay: Promastigote forms assay; format: cell-based, Leishmania infantum; settings: in brackets, reference Glucantime
One number for each entry.

// number of times that compound SI exceeds the reference drug SI, Promastigote forms value for O=c1c(O[C@@H]2O[C@H](CO)[C@@H](O)[C@H](O)[C@H]2O)c(-c2ccc(O)cc2)oc2cc(O)cc(O)c12 [Compound 1, astragalin] : 8

// number of times that compound SI exceeds the reference drug SI, Promastigote forms value for CC(=O)OC[C@H]1O[C@@H](Oc2c(-c3ccc(OC(C)=O)cc3)oc3cc(OC(C)=O)cc(OC(C)=O)c3c2=O)[C@H](OC(C)=O)[C@@H](OC(C)=O)[C@@H]1OC(C)=O [Compound 3] : 11

// number of times that compound SI exceeds the reference drug SI, Promastigote forms value for CC(=O)O[C@H]1[C@H](Oc2c(-c3ccc(O)c(O)c3)oc3cc(O[C@@H]4O[C@@H](C)[C@H](O)[C@@H](O)[C@H]4O)cc(O)c3c2=O)O[C@H](CO)[C@@H](O)[C@@H]1O [Compound 8, 2′′-acetylpetiolaroside] : 66

// number of times that compound SI exceeds the reference drug SI, Promastigote forms value for CC(=O)OC[C@H]1O[C@@H](Oc2cc(OC(C)=O)c3c(=O)c(O[C@@H]4O[C@H](COC(C)=O)[C@@H](OC(C)=O)[C@H](OC(C)=O)[C@H]4OC(C)=O)c(-c4ccc(OC(C)=O)cc4)oc3c2)[C@H](OC(C)=O)[C@@H](OC(C)=O)[C@@H]1OC(C)=O [Compound 6] : 54

// number of times that compound SI exceeds the reference drug SI, Promastigote forms value for C[C@H]1O[C@H](Oc2cc(O)c3c(=O)c(O[C@@H]4O[C@H](CO)[C@@H](O)[C@H](O)[C@H]4O)c(-c4ccc(O)c(O)c4)oc3c2)[C@@H](O)[C@@H](O)[C@@H]1O [Compound 7, petiolaroside] : 51

// number of times that compound SI exceeds the reference drug SI, Promastigote forms value for CC(=O)O[C@H]1[C@H](Oc2c(-c3ccc(O)cc3)oc3cc(O)cc(O)c3c2=O)O[C@H](CO)[C@@H](O)[C@@H]1O [Compound 2] : 10

// number of times that compound SI exceeds the reference drug SI, Promastigote forms value for CC(=O)OC[C@H]1O[C@@H](Oc2c(-c3ccc(OC(C)=O)c(OC(C)=O)c3)oc3cc(O[C@@H]4O[C@@H](C)[C@H](OC(C)=O)[C@@H](OC(C)=O)[C@H]4OC(C)=O)cc(OC(C)=O)c3c2=O)[C@H](OC(C)=O)[C@@H](OC(C)=O)[C@@H]1OC(C)=O [Compound 9, petiolaroside decacetate] : 27

Next, consider the following compound.
// number of times that compound SI exceeds the reference drug SI, Promastigote forms value for CC(=O)O[C@H]1[C@H](Oc2c(-c3ccc(O)cc3)oc3cc(O[C@@H]4O[C@H](CO)[C@@H](O)[C@H](O)[C@H]4O)cc(O)c3c2=O)O[C@H](CO)[C@@H](O)[C@@H]1O [Compound 5, 2′′-acetylpaeonoside] : 51

###

test system: L. infantum axenic amastigote forms; experiment: Axenic amastigote forms assay; format: cell-based, Leishmania infantum; settings: IC50 macrophages/IC50 parasite form
endpoint.label: SI Axenic amastigote forms
One number for each entry.

// SI Axenic amastigote forms value for `CC(=O)OC[C@H]1O[C@@H](Oc2c(-c3ccc(OC(C)=O)cc3)oc3cc(OC(C)=O)cc(OC(C)=O)c3c2=O)[C@H](OC(C)=O)[C@@H](OC(C)=O)[C@@H]1OC(C)=O` : 12.0
